# System: MS2 coat protein
# Assay Notes: apparent KD of MS2 coat protein; higher = weaker reporter binding
# Recorded Conditions: Eterna round: R107; input ligand: none
Classify by measured apparent KD of MS2 coat protein: true (1) if it is equal to or exceeds 90 nM, false (0) if it is smaller.

# Sequence Record, Classification
rows = [
    ("GGUCCCGUCGGAAGGAGCGACAUGAGGAUCACCCAUGUCUCCCGUUAUGGGAGUUCUUUAGGUCAGGUAGGUCGCCGGCGGGAGC [#1 Exclusion - Arginine B Attempt #15 (Inspired by Omei)]", "true (1)"),
    ("ACAUGAGGAUCACCCAUGUCACUCGUGUUCCGAGGACCGGUACGGCCGCCACUCGGUCCUCGCGAGGAUGGUCAAAGACUAUCCA [Omei Trp A SS B v2]", "false (0)"),
    ("GGCACAUAGUCGGCCGCCACUAGAAUAUAGUGGAAUAACAUGAGGAUCACCCAUGUAUUUGGGACUAGGACCGGGACUAUGUGCC [Bear]", "false (0)"),
    ("ACGAUAGGACUUGAGGAUCACCCAGGUGAUACCAGCCUGGAAACAGGCCCUUGGCAGCACUAAUACUCCAAUAACCUAUCGAAUA [TheoAX 16 #MicroSwitchBubble #AlternativeMS2]", "true (1)"),
    ("GCGGUCGGAGUGCGGCGUGUUCCGCUCCGUCGAGGACCGGUACGGCCGCCACUCGACAUGAGGAUCACCCAUGUCCGACCGCGCG [#1 Exclusion - Tryptophan A Attempt #5 (HarryS)]", "false (0)"),
]

====

# reported apparent KD of MS2 coat protein; entries follow
# Tested on: MS2 coat protein
# Assay Notes: apparent KD of MS2 coat protein; designed switch direction (-1 OFF switch, 1 ON switch): 1; higher = weaker reporter binding
# Recorded Conditions: input ligand: microRNA oligo, concentration not stated
Reported Metric: apparent KD of MS2 coat protein (nM)

# Sequence Record, Target Or Test System, Reported Metric, Meas Value
data = [
    ("GGAGCCGGCACUGAGGAUAUUCAUAUUAAAACAUGAGGAUCACCCAUGUAGGCCAGAAGGCCUUGGGAGAAGGCAGGUCGGCCCG [Bibimaor] (Eterna round: R96, puzzle: Same State 2)", "MS2 coat protein", "apparent KD of MS2 coat protein", 250),
    ("ACAUGAGAACGAGGAUAUUUUGUACCUACAUGUGACAUGAGGAUCACCCAUGUGGUAAGUAUGAGAAAGAAGGCGUAGAUAUGU [Equivalence 14 - Jieux - Same State NG 2] (Eterna round: R96, puzzle: Same State NG 2)", "MS2 coat protein", "apparent KD of MS2 coat protein", 30.6),
    ("AUAAUAAGGACAGGAUAUGGGAAAGGAAGUGUACUAGAAGGGUCGAGAAGACCAGAACAUGAGGAUCACCCAUGUGAUGGGAAA [PowerStrip SSNG 1.28] (Eterna round: R96, puzzle: Same State NG 1)", "MS2 coat protein", "apparent KD of MS2 coat protein", 23.3),
    ("AGAGGAGGAGCAGGAUAUUCGAAGAAGAACGUGGAAGAAGGGUUCAUGCGAUGACAUGAGGAUCACCCAUGUACCGCGCGAGGA [AK SSNG1-V2-11] (Eterna round: R96, puzzle: Same State NG 1)", "MS2 coat protein", "apparent KD of MS2 coat protein", 42.9),
]

====

# System: MS2 coat protein
# Assay Notes: apparent KD of MS2 coat protein; designed switch direction (-1 OFF switch, 1 ON switch): -1; higher = weaker reporter binding
# Recorded Conditions: input ligand: FMN 200 uM
Reported Metric: apparent KD of MS2 coat protein (nM)

# Sequence Record, Reported Metric, Unit Of Measurement, Meas Value
rows = [
    ("GGGUGACAUGAGGAUCACCCAUGUCAGGAUAUGGGCCCGGGCCCGAAAGGGCCCGGGCCCAGAAGGGACUGCCC [-52, -51 kcal, 22%A] (Eterna round: R97, puzzle: Exclusion 1)", "apparent KD of MS2 coat protein", "nM", 151),
    ("ACAUGAGGAUCACCCAUGUGAACAUGAUGGCUGAUGUAGAGCUAGGAUAUGAGUGAAUAUCUAUCUCAGAAGGAGCUUGACUGG [Deportation 47 - Jieux - Exclusion NG 3] (Eterna round: R96, puzzle: Exclusion NG 3)", "apparent KD of MS2 coat protein", "nM", 34.1),
    ("CCCGGGUUUGUAGGAUAUGCCCGCCUUUGGCGGGCAGAAGGACAUGAGGAUCACCCAUGUUGUAUAAACUUGGGAUGUUCCUCG [random4] (Eterna round: R96, puzzle: Exclusion NG 1)", "apparent KD of MS2 coat protein", "nM", 30.8),
    ("AGCUAGAUAGGAUAUGCCCGGGAUAACAUGAGGAUCACCCAUGUGGCCGAAUCAAGUCCAGCAGAAGGGUUUGGGA [Mod of ViennaUCT 11 - Jieux - Exclusion 5] (Eterna round: R97, puzzle: Exclusion 5)", "apparent KD of MS2 coat protein", "nM", 43.2),
    ("CAAAAGCUAGGAUAUACACAAAACGCCUGCAUGCAAACAUCACAUGAGGAUCACCCAUGUAGAAGGAGCGGAAA [EX2 A.21] (Eterna round: R97, puzzle: Exclusion 2)", "apparent KD of MS2 coat protein", "nM", 22.1),
    ("UGCAGACGAGGAUAUAGAUUUAGAUACAUGAGGAUCACCCAUGUAUAUAUGUAUUUAGAUUUAGAAGGCGUCUGCU [E5/15-A4] (Eterna round: R97, puzzle: Exclusion 5)", "apparent KD of MS2 coat protein", "nM", 240),
    ("UCUAUUUUGCGAGGAUAUCGACCAUUCCUCUUUACAUGAGGAUCACCCAUGUUCUUUUUCUACAACGAGAAGGCGCUCAUAGUU [JR_ExcNG2_Sub062] (Eterna round: R96, puzzle: Exclusion NG 2)", "apparent KD of MS2 coat protein", "nM", 73.5),
    ("GCCGGAUAAGUGAGGAUAUACCUAUGGAUACAUAGGUAGAAGGCACAUGAGGAUCACCCAUGUACCUCUCCGGC [JL-BMX4-4.18 Eli mod] (Eterna round: R97, puzzle: Brourd's mod of Exclusion 4)", "apparent KD of MS2 coat protein", "nM", 87.5),
    ("CCGGUUGGCGCAGGAUAUACAUGAGGAUCACCCAUGUUCAUGAGGAUCACCUAUGAGUUUUUGUUGUAGAAGGGUGGCCCGGCC (Eterna round: R96, puzzle: Exclusion NG 2)", "apparent KD of MS2 coat protein", "nM", 53.1),
    ("AGGUCAGAAGGAUAUACAUGAGGAUCACCCAUGUGGGAUACAACGAGCCGUUGUUCAGGUAGAAGGUCUAAAAU [Eternabot (Original) Solution 33] (Eterna round: R97, puzzle: Exclusion 3)", "apparent KD of MS2 coat protein", "nM", 86),
    ("AACCUGAGGCUUUGCUUUAGGUUUACAUGAGGAUCACCCAUGUAGGAUAUGGUAGGCUUUGCUUACCAGAAGGACAUGAUAAUU [Mat - Exclusion NG 3 - Mod of JL - D27] (Eterna round: R96, puzzle: Exclusion NG 3)", "apparent KD of MS2 coat protein", "nM", 215),
    ("UCUCAGCCUAAGGAUAUGAGCCGAACCAAAAGUUCAGAAGGUAGGACAUGAGGAUCACCCAUGUGAGCCUACAC [Eternabot (Original) Solution 39] (Eterna round: R97, puzzle: Exclusion 6)", "apparent KD of MS2 coat protein", "nM", 34.3),
    ("GCACGGAGUGUAGGAUAUCUGUGCGAUUAGCUCAGAGAAGGACACAUGAGGAUCACCCAUGUGUAUCAACACAAUAAUCCGUGC [Eli exng1 - 071] (Eterna round: R96, puzzle: Exclusion NG 1)", "apparent KD of MS2 coat protein", "nM", 14.8),
    ("UUCUCGACAUGAGGAUCACCCAUGUAGUGGGAGAAAACUGGUUAGGAUAUAAAAUAGUACACCGUUUAGAAGGGACCUAUCCUC [Eternabot solution 4] (Eterna round: R96, puzzle: Exclusion NG 3)", "apparent KD of MS2 coat protein", "nM", 79.2),
    ("GGCGCCUGAGGAUAUCAGUCUGGAUCAGAAAAGAUCCUGACUGAGAAGGCACAUGAGGAUCACCCAUGUUCGCC [Mat - Exclusion 4 - Eli Mod - D51] (Eterna round: R97, puzzle: Exclusion 4)", "apparent KD of MS2 coat protein", "nM", 14.5),
    ("GGUGAGCUAGGAUAUGCUUUGGGCUCGCUUUCCUUCGUUUUACUUGAGGAUCACCCAAGUAGAAGGAGCUUGCC [salish99_ex2_r4_036] (Eterna round: R97, puzzle: Exclusion 2)", "apparent KD of MS2 coat protein", "nM", 13.9),
    ("AAAGUUGCCUACGGUGUGCACAUGAGGAUCACCCAUGUACCUCCAUGGCAGUGCCAAUAAUUAUGCUCGUCACUACA [Eternabot (L1) Solution 18] (Eterna round: R97, puzzle: Sensor, turn-off variant 1)", "apparent KD of MS2 coat protein", "nM", 14.9),
    ("CGGGACGUCCUGAUAAUAAGACAUGAGGAUCACCCAUGUCGGCAGGAUAUCAGUCCUUACGGUUUUGAGAAGGGUCGACAACCA [Birace] (Eterna round: R96, puzzle: Exclusion NG 3)", "apparent KD of MS2 coat protein", "nM", 14.1),
    ("AACGUGUAAGGAUAUGCUGCUCGUCACGAAAGUGAUGAGUAGCAGAAGGUACAUGAGGAUCACCCAUGUAAAGA [Exclusion 4.1f (Exclusion4-cac2 - changed GC at 6/50 to AU )] (Eterna round: R96, puzzle: Exclusion 4)", "apparent KD of MS2 coat protein", "nM", 91.6),
    ("GCCAGAGCAGGAUAUCUAUAUUAUCACAUGAGGAUCACCCAUGUCCAGCGAAAGCUGGAGGGAGAAGGGCUCUGGC [Fiskers Ex 5 - 26] (Eterna round: R96, puzzle: Exclusion 5)", "apparent KD of MS2 coat protein", "nM", 51),
]
